Target: RBM39 and the DCAF15 complex (RBM39-Flag / His-DCAF15-DDA1-DDB1) (Homo sapiens (Human), UniProt Q14498+Q66K64)
Assay: DCAF15 RBM39 complex formation TR-FRET assay
Settings: RBM39(R150-D331) 3xFlag 50 nM, His-DCAF15-DDA1-DDB1 10 nM, 60 min room temperature
Please provide measured log10 of EC50 for the entries that follow.
Heads up: the numbers are on a log10 scale; they represent EC50 in nM.

Task: Tell me the measured log10 of EC50 of N#Cc1c[nH]c2c(NS(=O)(=O)c3csc(C(F)(F)F)n3)cccc12 [Compound 49] , please.
Result: 2.28

Task: Tell me the measured log10 of EC50 of Cc1ncc(S(=O)(=O)Nc2ccc(C)c3c(C#N)c[nH]c23)s1 [Compound 48] , please.
Result: 2.10

Task: Tell me the measured log10 of EC50 of O=S(=O)(Nc1ccc(F)c2c(Cl)c[nH]c12)c1nc(C(F)(F)F)cs1 [Compound 159] , please.
Result: 2.65

Task: Tell me the measured log10 of EC50 of Cc1ccc(NS(=O)(=O)c2csc(C(F)(F)F)n2)c2[nH]cc(C#N)c12 [Compound 47] , please.
Result: 1.99

Task: Tell me the measured log10 of EC50 of Cc1sc(S(=O)(=O)Nc2ccc(C)c3c(C#N)c[nH]c23)nc1Br [Compound 11] , please.
Result: 2.03

Task: Tell me the measured log10 of EC50 of Cc1ccc(NS(=O)(=O)c2ncc(-c3cccnc3)s2)c2[nH]cc(C#N)c12 [Compound 32] , please.
Result: 2.13

Task: Tell me the measured log10 of EC50 of N#Cc1c[nH]c2c(NS(=O)(=O)c3nccs3)ccc(F)c12 [Compound 114] , please.
Result: 3.51

Task: Tell me the measured log10 of EC50 of COCCNC(=O)c1csc(S(=O)(=O)Nc2ccc(C)c3c(C#N)c[nH]c23)n1 [Compound 75] , please.
Result: 3.34

Task: Tell me the measured log10 of EC50 of Cc1ccc(NS(=O)(=O)c2cn(CC(C)C)cn2)c2[nH]cc(C#N)c12 [Compound 161] , please.
Result: 2.99

Task: Tell me the measured log10 of EC50 of Cc1nc(S(=O)(=O)Nc2ccc(C)c3c(C#N)c[nH]c23)cs1 [Compound 152] , please.
Result: 2.45

Task: Tell me the measured log10 of EC50 of O=S(=O)(Nc1cccc2c(Cl)c[nH]c12)c1cncs1 [Compound 203] , please.
Result: 2.77

Task: Tell me the measured log10 of EC50 of N#Cc1c[nH]c2c(NS(=O)(=O)c3cc(C4CC4)no3)cccc12 [Compound 87] , please.
Result: 2.44

Task: Tell me the measured log10 of EC50 of Cc1sc(S(=O)(=O)Nc2ccc(C)c3c(C#N)c[nH]c23)nc1C#N [Compound 10] , please.
Result: 1.88

Task: Tell me the measured log10 of EC50 of Cc1ccc(NS(=O)(=O)c2nc(C(=O)N3CCOCC3)cs2)c2[nH]cc(C#N)c12 [Compound 61] , please.
Result: 3.25

Task: Tell me the measured log10 of EC50 of Cc1ccc(NS(=O)(=O)c2onc(C3CC3)c2Cl)c2[nH]cc(C#N)c12 [Compound 83] , please.
Result: 2.02

Task: Tell me the measured log10 of EC50 of CNC(=O)c1csc(S(=O)(=O)Nc2ccc(C)c3c(C#N)c[nH]c23)n1 [Compound 58] , please.
Result: 3.03

Task: Tell me the measured log10 of EC50 of N#Cc1c[nH]c2c(NS(=O)(=O)c3cnc(C(F)(F)F)s3)cccc12 [Compound 34] , please.
Result: 2.48

Task: Tell me the measured log10 of EC50 of O=S(=O)(Nc1cccc2c(Cl)c[nH]c12)c1nccs1 [Compound 133] , please.
Result: 3.43
